Source: ChEMBL document CHEMBL1201862

Tested on: OVCAR-3
test details: NCI tumour cell line growth inhibition, 48 h
Activity calls are given as the source filed them. Cut-off read from the data, not from the text of the source: active = GI50 up to about 1.1 µM and inactive = higher.
Write down one outcome, taken from y for active, n for inactive

What did this assay record as the result for CC[C@@]1(O)C(=O)OCc2c1cc1n(c2=O)Cc2c-1nc1ccccc1c2/C=N/NC(=O)c1ccc(N)cc1 ?
y

What did this assay record as the result for CCOC(=O)C(C#N)C1=CC(=O)C(=O)c2ccc(O)cc21 (stereo not drawn) ?
n

What did this assay record as the result for CCOC(=O)C12C(=O)CCN1CCc1ccccc1C2C (stereo not drawn) ?
n

What did this assay record as the result for CCOc1ccc(/N=N/C2C(=O)N(C(=O)CC(=O)Nc3ccc(C)cc3)N=C2C)cc1 (stereo not drawn) ?
n

What did this assay record as the result for Cc1ccccc1C(=O)N1CCN(C(=O)c2ccccc2C)CC1 ?
n

What did this assay record as the result for CC1(C)CC[C@]2(C(=O)O)CC[C@]3(C)C(=CC[C@@H]4[C@@]5(C)CC[C@@H]6OC(C)(C)OC[C@@]6(C)[C@@H]5CC[C@]43C)[C@H]2C1 ?
n

What did this assay record as the result for CC/C=C1\N=C(c2ccc(Cl)cc2)OC1=O ?
n

What did this assay record as the result for CN(Cc1cnc2nc(N)nc(N)c2n1)c1ccc(C(=O)NC23CC4CC(CC(C4)C2)C3)cc1 ?
n

* * *

System: OVCAR-8
test details: NCI tumour cell line growth inhibition, 48 h
Active and inactive are the calls of the source. Rule as the data show it: active = GI50 up to about 1.1 µM and inactive = higher.
Write down one outcome, taken from active, inactive

• S=C(N/N=C\C=N/NC(=S)N1CCCCCC1)N1CCCCCC1 = inactive

What did this assay record as the result for Cc1c(C(=O)O)n2c(S)nnc2c2ccccc12 ?
inactive

What did this assay record as the result for Cn1c2ccccc2n2c3nc4ccccc4nc3c(C#N)c12 ?
inactive

What did this assay record as the result for NC1=C(Br)C(=O)c2ncccc2C1=O ?
active

What did this assay record as the result for CC(=O)n1c(COS(C)(=O)=O)nc2ccccc21 ?
inactive

What did this assay record as the result for C/C(=C\CBr)CCC(Br)C(C)(C)Cl (configuration not stated) ?
inactive

What did this assay record as the result for C=CCC(SC)C1=C(C)C(=O)c2ccccc21 (configuration not stated) ?
inactive

What did this assay record as the result for C[N+](C)(C)Cc1c(CC#N)[nH]c2ccccc12 ?
inactive

What did this assay record as the result for COc1c(/C=C/C(C)(C)O)cc(C2CC(=O)c3c(O)cc(O)cc3O2)cc1CC=C(C)C (configuration not stated) ?
inactive

What did this assay record as the result for O=C(O)C1OC(n2cc(F)c(=O)[nH]c2=O)CC1O (configuration not stated) ?
inactive

What did this assay record as the result for O=C1C2=C(c3ccccc31)C(c1ccccc1Cl)N1C(=O)CSC1=N2 (configuration not stated) ?
inactive

What did this assay record as the result for CC(C)OC(=O)C1(C(C)C)CCc2ccc(C(=O)CCC(=O)O)cc21 (configuration not stated) ?
inactive

* * *

Test system: HT-29
test details: NCI tumour cell line growth inhibition, 48 h
Activity calls are given as the source filed them. Rule as the data show it: active = GI50 up to about 1.1 µM and inactive = higher.
quantity measured: GI50

Below, each entry is followed by its recorded GI50 result.
• CCC(C)[C@@H](NCc1ccccc1)[C@H](OCc1ccccc1)[C@@H]1COC(C)(C)O1 (some centres undefined) = 10.7 µM (inactive)
• Nc1ncnc2c1nc(O)n2-c1ccccc1 = > 100 µM (inactive)

// for each compound in input: emit GI50
1. CC(=O)NN/C=N/C(C#N)=C(\N)C#N
2. CC(=O)n1c(COS(C)(=O)=O)nc2ccccc21

1. > 100 µM (inactive)
2. > 100 µM (inactive)
